AST (U/L) listing for selected compounds.
System: hyperlipidemia rats
Test: Serum biochemical indicators in high-fat diet hyperlipidemia rats
Type: in vivo, SD rats
Details: serum, 20 mg/(kg d) by gastric gavage, 4 weeks, x ± s, n = 9
endpoint: AST (U/L)

compound | value.observed
COc1cc2c3c(c1OC)-c1ccccc1CC3N(C(=O)c1ccccc1C)CC2 (stereo not shown) [Compound 6d, o-Methylbenzoylnuciferine] | 7.78
COc1cc2c3c(c1OC)-c1ccccc1CC3N(C(=O)c1ccc(F)cc1)CC2 (stereo not shown) [Compound 6b, p-Fluorobenzoylnuciferine] | 7.91
CCC(C)(C)C(=O)O[C@H]1C[C@@H](C)C=C2C=C[C@H](C)[C@H](CC[C@@H]3C[C@@H](O)CC(=O)O3)[C@H]21 [Simvastatin, simvastatin, reference compound] | 7.57
COc1cc2c3c(c1OC)-c1ccccc1CC3N(C(=O)c1ccc(C)cc1)CC2 (stereo not shown) [Compound 6c, p-Methylbenzoylnuciferine] | 7.86
